For each entry below, report its pIC50 value.
# target entity: CSF1R (Homo sapiens)
# procedure text: Cellular CSF1R inhibition ELISA (p-CSF1R, M-CSF-induced) using THP-1 cells
pIC50: −log10 of the molar value.

>  <compound>
COc1cc2nccc(Oc3ccc(NC(=O)c4nn(CC(C)O)cc4OCCF)nc3)c2cc1OC (stereo not shown)

>  <measure name>
pIC50

>  <reported measurement>
> 6.30

$$$$

For every record below, what is its pIC50?
1. CCCn1cc(OC(C)C)c(C(=O)Nc2ccc(Oc3ccnc4cc(OC)c(OC(F)(F)F)cc34)c(F)c2)n1
2. COc1cc2nccc(Oc3ccc(NC(=O)c4nn(C5CC5)cc4OCC4COC4)nc3)c2cc1OC
3. COc1cc2nccc(Oc3ccc(NC(=O)c4nn(C5CCOCC5)cc4OCC(F)(F)F)nc3)c2cc1OC
4. CCCn1cc(OCC(F)(F)F)c(C(=O)Nc2ccc(Oc3ccnc4cc(OC)c(OC)cc34)cn2)n1

Output:
≤ 6.00
> 6.30
> 6.30
> 6.30

For every record below, what is its pIC50?
1. CCCn1cc(OCCN(C)C)c(C(=O)Nc2ccc(Oc3ccnc4cc(OC)c(OC)cc34)c(F)c2)n1
2. COCCn1cc(OCC(F)(F)F)c(C(=O)Nc2ccc(Oc3ccnc4cc(OC)c(OC)cc34)cc2F)n1

Output:
["≤ 6.00", "≤ 6.00"]

* * *

# target entity: Axl (Homo sapiens, UniProt P30530)
# Sequence (P30530 26-894): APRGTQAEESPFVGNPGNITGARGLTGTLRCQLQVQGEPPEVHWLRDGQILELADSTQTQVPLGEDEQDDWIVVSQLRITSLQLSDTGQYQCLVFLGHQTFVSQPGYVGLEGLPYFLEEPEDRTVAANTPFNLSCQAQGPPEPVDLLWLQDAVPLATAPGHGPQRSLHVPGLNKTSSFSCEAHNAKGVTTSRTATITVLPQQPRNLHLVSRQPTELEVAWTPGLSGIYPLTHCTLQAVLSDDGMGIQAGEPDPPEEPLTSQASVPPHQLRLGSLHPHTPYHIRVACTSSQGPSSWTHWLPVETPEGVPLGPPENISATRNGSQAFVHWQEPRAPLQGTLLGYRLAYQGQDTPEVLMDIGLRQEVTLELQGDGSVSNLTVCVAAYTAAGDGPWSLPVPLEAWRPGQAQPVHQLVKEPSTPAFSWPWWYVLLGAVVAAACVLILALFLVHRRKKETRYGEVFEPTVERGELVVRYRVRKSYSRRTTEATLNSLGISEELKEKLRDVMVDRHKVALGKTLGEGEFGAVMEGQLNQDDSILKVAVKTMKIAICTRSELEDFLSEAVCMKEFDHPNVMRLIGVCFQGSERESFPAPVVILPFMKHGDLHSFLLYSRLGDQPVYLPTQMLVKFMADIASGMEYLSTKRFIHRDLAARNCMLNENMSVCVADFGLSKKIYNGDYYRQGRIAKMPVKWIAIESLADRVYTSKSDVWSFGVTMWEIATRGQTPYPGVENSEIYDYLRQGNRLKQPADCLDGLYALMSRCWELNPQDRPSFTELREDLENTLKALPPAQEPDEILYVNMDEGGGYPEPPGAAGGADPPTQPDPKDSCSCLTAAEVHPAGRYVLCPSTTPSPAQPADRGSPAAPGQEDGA
# procedure text: LanthaScreen Eu kinase binding assay for Axl
# experimental context: comparison of compounds of present invention (**) vs compounds of WO2016/166250 (*); read-out: Binding activity Axl (Kd)
For each entry below, report its pKd value.
One number for each entry, as −log10 of the molar value.

# example entries with known answers
>  <smi>
COc1cc2nccc(Oc3ccc(NC(=O)c4nn(CC5COC5)cc4OCC(F)(F)F)nc3)c2cc1OC

>  <pKd>
8.85

$$$$
>  <smi>
COCCn1cc(OCC(F)(F)F)c(C(=O)Nc2ccc(Oc3ccnc4cc(OC)c(OC)cc34)cn2)n1

>  <pKd>
8.49

$$$$
>  <smi>
COc1cc2nccc(Oc3ccc(NC(=O)c4n[nH]cc4OCC(F)(F)F)nc3)c2cc1OC

>  <pKd>
7.72

$$$$

Task: Data request, read-out pKd, for `CCn1cc(OCC(F)(F)F)c(C(=O)Nc2ccc(Oc3ccnc4cc(OC)c(OC)cc34)cn2)n1`
Output: 8.96

* * *

# target entity: CSF1R (Homo sapiens, UniProt P07333)
# Sequence (P07333 20-972): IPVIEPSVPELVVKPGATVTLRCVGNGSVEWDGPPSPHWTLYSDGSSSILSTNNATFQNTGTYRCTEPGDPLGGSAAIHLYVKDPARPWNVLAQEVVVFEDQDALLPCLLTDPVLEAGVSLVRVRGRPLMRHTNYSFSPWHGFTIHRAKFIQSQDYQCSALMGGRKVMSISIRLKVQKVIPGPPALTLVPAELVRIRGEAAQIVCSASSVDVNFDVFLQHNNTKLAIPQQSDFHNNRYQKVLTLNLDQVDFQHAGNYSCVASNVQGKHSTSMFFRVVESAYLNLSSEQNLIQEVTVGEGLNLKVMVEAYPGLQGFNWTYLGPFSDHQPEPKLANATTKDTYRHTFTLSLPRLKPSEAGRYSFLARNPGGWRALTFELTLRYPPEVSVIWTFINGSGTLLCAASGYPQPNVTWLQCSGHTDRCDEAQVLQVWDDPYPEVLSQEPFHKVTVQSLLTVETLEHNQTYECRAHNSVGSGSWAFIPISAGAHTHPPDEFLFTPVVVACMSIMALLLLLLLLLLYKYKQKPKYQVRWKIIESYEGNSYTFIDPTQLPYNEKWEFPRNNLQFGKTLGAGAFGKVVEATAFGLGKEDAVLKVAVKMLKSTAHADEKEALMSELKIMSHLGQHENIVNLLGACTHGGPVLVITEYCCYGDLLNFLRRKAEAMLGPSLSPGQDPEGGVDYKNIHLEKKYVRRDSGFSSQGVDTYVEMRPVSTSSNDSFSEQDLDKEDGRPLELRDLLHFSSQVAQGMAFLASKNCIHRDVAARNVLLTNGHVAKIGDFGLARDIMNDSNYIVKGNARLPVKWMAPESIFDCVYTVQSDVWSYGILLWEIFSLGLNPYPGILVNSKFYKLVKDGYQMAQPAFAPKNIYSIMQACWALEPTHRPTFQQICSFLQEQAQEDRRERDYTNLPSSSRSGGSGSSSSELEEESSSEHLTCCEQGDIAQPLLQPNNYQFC
# procedure text: KINOMEscan competition binding assay for CSF1R
# Parameters: DNA tag for qPCR (not a peptide); host or cells: E. coli/T7 phage or HEK-293
# experimental context: @ 0.1 uM; read-out: CSF1R kinase binding activity, Range
measure name: inhibition at 0.1 µM

# example entries with known answers
>  <molecule>
COc1cc2nccc(Oc3ccc(NC(=O)c4nn(CCN)cc4OCC(F)(F)F)c(F)c3)c2cc1OC

>  <target entity>
CSF1R (Homo sapiens, UniProt P07333)

>  <inhibition at 0.1 µM>
50 to 80%

$$$$
>  <molecule>
COCCn1cc(OCC(F)(F)F)c(C(=O)Nc2ccc(Oc3ccnc4cc(OC)c(OC)cc34)c(F)c2)n1

>  <target entity>
CSF1R (Homo sapiens, UniProt P07333)

>  <inhibition at 0.1 µM>
≥ 80%

$$$$
>  <molecule>
COc1cc2nccc(Oc3ccc(NC(=O)c4nn(CC5CCNC5)cc4OCC(F)(F)F)nc3)c2cc1OC (stereo not shown)

>  <target entity>
CSF1R (Homo sapiens, UniProt P07333)

>  <inhibition at 0.1 µM>
≥ 80%

$$$$

For every record below, what is its inhibition at 0.1 µM?
1. COCCn1cc(OCC(F)(F)F)c(C(=O)Nc2ccc(Oc3ccnc4cc(OC)c(OC)cc34)cc2)n1
2. COCCn1cc(OCC(F)(F)F)c(C(=O)Nc2ccc(Oc3ccnc4cc(OC)c(OC)cc34)c(C)c2)n1
3. COc1cc2nccc(Oc3ccc(NC(=O)c4nn(C5CC5)cc4NCC(F)(F)F)nn3)c2cc1OC
4. COc1cc2nccc(Oc3ccc(NC(=O)c4nn(C5CC5)cc4NCCC(F)(F)F)nn3)c2cc1OC

Output:
50 to 80%
≥ 80%
50 to 80%
< 50%
